System: 5-HT (serotonin) uptake
Assay: 5-HT (serotonin) uptake inhibition, synaptosomal preparation (cortex)
Assay type: biochemical, rat (Male Sprague-Dawley)
Settings: 5-hydroxytryptamine; rat cortex synaptosomes; 0.1 μM tritiated amine; 37° C., 4 minutes
Counter-ions that a name gives are not always drawn.
property: IC50 (µM)
Give bare numbers, in µM.

Record excerpt, results attached:
molecule	testSystem	measurementUnits	IC50
COc1ccc2c(c1)CCC1C(Cc3ccccc3)NCC21 (stereo not drawn) [Example 6]	5-HT (serotonin) uptake	µM	6.51
CN1CC2c3ccccc3CCC2C1Cc1ccccc1 (stereo not drawn) [Example 10]	5-HT (serotonin) uptake	µM	13.5
COc1ccc2c(c1)CCC1C(Cc3cccc(F)c3)NCC21 (stereo not drawn) [Example 26, hydrochloride]	5-HT (serotonin) uptake	µM	2.25

The following molecules each have a reported value; give each one's IC50.
1. CCN1CC2c3cccc(OC)c3CCC2C1Cc1cccc(F)c1 (stereo not drawn) [Example 25, hydrochloride]
2. CN1C[C@@H]2c3ccccc3CC[C@@H]2CCC1Cc1ccccc1 (relative stereo) [Example 77, hydrochloride]
3. Fc1ccc(CC2NCC3c4ccccc4CCC23)cc1 (stereo not drawn) [Example 17]

Response line:
[1.9, 4.17, 11]
